experimental_protocol: Solubility in 7 aqueous pH buffers and bio-relevant fluids at 37° C. (HPLC of supernatant; residual solids by XRPD)
Assay type: physicochemical
assay_conditions: aqueous buffer, thermodynamic from solid; ES4, pH 7.4 phosphate buffer (50 mM), 37° C., 2 h
Method: 20 mg of the free base Form A of Compound I was weighed into a 20 mL glass vial. Amounts of the salts equivalent to 20 mg anhydrous free base were weighed into a glass vial. 10 mL of solubility medium was added. The resulting suspensions/solutions were stirred at 37° C. at 400 rpm and sampled at 2 hours and at 24 hours, respectively. […] Supernatants were analyzed by HPLC and pH meter for solubility and pH value, respectively. […] Residual solids after the solubility test were analyzed by XRPD.
property: solubility at 2 h (µg/mL)
Just the number please, in µg/mL, no unit attached.

# solubility at 2 h of C=CC(=O)NCC(=O)N1CCN(Cc2cc3c(N4CCOCC4)nc(-c4cnc(NC(=O)OC)cc4C(F)(F)F)nn3c2)CC1 [Form A of Compound I] = 2.2
